- protocol: pharmacokinetic analysis of RAD001 in blood
- Format: in vivo, NSG mice
- assay_context: NSG, mouse, blood; lowest dose tested (0.3 mg/kg), oral; read-out: RAD001 concentration in the blood 24 hours after dosing
quantity_name: concentration at 24 h

I would be grateful if you could share the reported concentration at 24 h for CO[C@H]1C[C@@H]2CC[C@@H](C)[C@@](O)(O2)C(=O)C(=O)N2CCCC[C@H]2C(=O)O[C@H]([C@H](C)C[C@@H]2CC[C@@H](OCCO)[C@H](OC)C2)CC(=O)[C@H](C)/C=C(\C)[C@@H](O)[C@@H](OC)C(=O)[C@H](C)C[C@H](C)/C=C/C=C/C=C/1C . > 10 nM

Origin of measurements: patent US20170209492A1
